pIC50: −log10 of the molar value.
Let's go through some recorded pIC50 values for ASK1 (Homo sapiens (Human), UniProt Q99683) together.
metric: pIC50

• CC(C)N1CCc2cnc(C(=O)Nc3cccc(-c4nnnn4[C@H](C)CO)n3)cc2C1 [Example 135] = 7.00 to 8.00
• CCn1cc(COC(=O)N2CCc3cnc(C(=O)Nc4cccc(-c5nnnn5[C@H](C)CO)n4)cc3C2)cn1 [Example 188] = 8.00 to 9.00
• CC(C)N1Cc2cnc(C(=O)Nc3cccc(-c4nncn4C(C)C)n3)cc2C1=O [Example 19] = 7.00 to 8.00
• CC(C)n1cnnc1-c1cccc(NC(=O)c2ccc3c(c2)CN(C(=O)N2CCCC2)C3)n1 [Example 17] = 7.00 to 8.00
• CC(C)CN(C)C(=O)N1CCc2cc(F)c(C(=O)Nc3cccc(-c4nnnn4C(C)C)n3)cc2C1 [Example 79] = 7.00 to 8.00
• CC(C)n1cnnc1-c1cccc(NC(=O)c2cc3c(cc2F)CCN(C(=O)N2CCCC2)C3)n1 [Example 44] = 8.00 to 9.00
• CC(C)n1nnnc1-c1cccc(NC(=O)c2cc3c(cc2F)CCN(C(=O)N(C)C2CCCC2)C3)n1 [Example 78] = 7.00 to 8.00
• C[C@H](CO)n1nnnc1-c1cccc(NC(=O)c2cc3c(cn2)CCN(C(=O)C(C)(C)C)C3)n1 [Example 152] = 8.00 to 9.00

src = patent US10450301B2
